The reported measurements were obtained from ChEMBL document CHEMBL3217616.

# Tested on: U-937
# TEST METHOD NOTES: Cytotoxicity against human U937 cells after 48 hrs by CCK-8 assay
# Assay type: functional, cell-based
# TEST SETTINGS: U-937, 48 h
pIC50: −log10 of the molar value.
This section presents compounds with their documented pIC50 values.
READOUT LABEL: pIC50

compound_structure=CCCCCCCCCC[C@H](O)COCCOC[C@@H](O)CCC1CCN(CCCCCCCCCC2=C[C@H](C)OC2=O)CC1 readout_label=pIC50 inequality_symbol== numeric_value=5.36
compound_structure=CCCCCCCCCC[C@H](O)COCCOC[C@@H](O)CCCCCCCCCCCCC1=C[C@H](C)OC1=O readout_label=pIC50 inequality_symbol== numeric_value=5.92
compound_structure=CCCCCCCCCC[C@H](O)COCCOC[C@@H](O)CC(=O)NCCCCCCCCCC1=C[C@H](C)OC1=O readout_label=pIC50 inequality_symbol== numeric_value=5.28
compound_structure=CCCCCCCCCC[C@H](O)COCCOC[C@@H](O)Cc1cn(CCCCCCCCCC2=C[C@H](C)OC2=O)nn1 readout_label=pIC50 inequality_symbol=< numeric_value=4.60

###

# Test system: SK-BR-3
# TEST METHOD NOTES: Cytotoxicity against human SK-BR-3 cells after 48 hrs by CCK-8 assay
# Format: functional, cell-based
# TEST SETTINGS: SK-BR-3, 48 h
pIC50: −log10 of the molar value.
This section presents compounds with their documented pIC50 values.
READOUT LABEL: pIC50

compound_structure=CCCCCCCCCC[C@H](O)COCCOC[C@@H](O)CCC1CCN(CCCCCCCCCC2=C[C@H](C)OC2=O)CC1 readout_label=pIC50 inequality_symbol== numeric_value=5.10
compound_structure=CCCCCCCCCC[C@H](O)COCCOC[C@@H](O)CC(=O)NCCCCCCCCCC1=C[C@H](C)OC1=O readout_label=pIC50 inequality_symbol=< numeric_value=4.60
compound_structure=CCCCCCCCCC[C@H](O)COCCOC[C@@H](O)CCCCCCCCCCCCC1=C[C@H](C)OC1=O readout_label=pIC50 inequality_symbol== numeric_value=4.66
compound_structure=CCCCCCCCCC[C@H](O)COCCOC[C@@H](O)Cc1cn(CCCCCCCCCC2=C[C@H](C)OC2=O)nn1 readout_label=pIC50 inequality_symbol=< numeric_value=4.60

###

# System: K562
# TEST METHOD NOTES: Cytotoxicity against human K562 cells after 48 hrs by CCK-8 assay
# Assay type: functional, cell-based
# TEST SETTINGS: K562, 48 h
pIC50: −log10 of the molar value.
READOUT LABEL: pIC50

compound_structure=CCCCCCCCCC[C@H](O)COCCOC[C@@H](O)CCCCCCCCCCCCC1=C[C@H](C)OC1=O numeric_value=5.57
compound_structure=CCCCCCCCCC[C@H](O)COCCOC[C@@H](O)CCC1CCN(CCCCCCCCCC2=C[C@H](C)OC2=O)CC1 numeric_value=5.51
compound_structure=CCCCCCCCCC[C@H](O)COCCOC[C@@H](O)CC(=O)NCCCCCCCCCC1=C[C@H](C)OC1=O numeric_value=4.82
compound_structure=CCCCCCCCCC[C@H](O)COCCOC[C@@H](O)Cc1cn(CCCCCCCCCC2=C[C@H](C)OC2=O)nn1 numeric_value=5.07

###

# TEST METHOD NOTES: Cytotoxicity against human NB4 cells after 48 hrs by CCK-8 assay
# Type: functional, cell-based
# TEST SETTINGS: NB-4, 48 h
pIC50: −log10 of the molar value.
This section presents compounds with their documented pIC50 values.
READOUT LABEL: pIC50

compound_structure=CCCCCCCCCC[C@H](O)COCCOC[C@@H](O)CCC1CCN(CCCCCCCCCC2=C[C@H](C)OC2=O)CC1 readout_label=pIC50 numeric_value=5.72
compound_structure=CCCCCCCCCC[C@H](O)COCCOC[C@@H](O)CCCCCCCCCCCCC1=C[C@H](C)OC1=O readout_label=pIC50 numeric_value=6.15
compound_structure=CCCCCCCCCC[C@H](O)COCCOC[C@@H](O)Cc1cn(CCCCCCCCCC2=C[C@H](C)OC2=O)nn1 readout_label=pIC50 numeric_value=5.49
compound_structure=CCCCCCCCCC[C@H](O)COCCOC[C@@H](O)CC(=O)NCCCCCCCCCC1=C[C@H](C)OC1=O readout_label=pIC50 numeric_value=5.35
